- testDetails: chemical genetic growth profiling, strain panel (AID 1159580);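 note: tested at 20 µM; growth read once vehicle control cultures reached saturation at 30 °C; 1 = growth at the plate median or of vehicle wells; lower values mean less growth of the strain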
- conditionInfo: S. cerevisiae deletion strains, growth OD, locus YIR030C, strain dcg1, active compounds read low
About 2,000 (36%) of roughly 5,500 compounds were called active. Roughly 18% stayed inconclusive and do not appear here. This is one part of the list.
Quick reference: normalized growth of the listed items.
Lab note: jot the number down without any unit.

Examples with answers:
{"compound": "CCS(=O)(=O)CCn1c([N+](=O)[O-])cnc1C", "normalized growth": 1.01}
{"compound": "CC(C)CCCC(C)C1CCC2C3CCC4CC(=O)CCC4(C)C3CCC12C (stereo unspecified)", "normalized growth": 1.02}
{"compound": "C[C@]12CCC3C(CC[C@H]4CC(=O)CC[C@]34C)C1CCC2=O (stereo partly specified)", "normalized growth": 0.976}

Using known records, supply normalized growth for CSCCC(NC=O)C(=O)NC(CC(C)C)C(=O)NC(Cc1ccccc1)C(=O)O (stereo unspecified)
0.99

Assign normalized growth to the following record: Cn1c([N+](=O)[O-])cnc1COC(N)=O
0.994
